Target: Piezo-type mechanosensitive ion channel component 1 (Homo sapiens, UniProt Q92508)
Sequence (Q92508 whole entry): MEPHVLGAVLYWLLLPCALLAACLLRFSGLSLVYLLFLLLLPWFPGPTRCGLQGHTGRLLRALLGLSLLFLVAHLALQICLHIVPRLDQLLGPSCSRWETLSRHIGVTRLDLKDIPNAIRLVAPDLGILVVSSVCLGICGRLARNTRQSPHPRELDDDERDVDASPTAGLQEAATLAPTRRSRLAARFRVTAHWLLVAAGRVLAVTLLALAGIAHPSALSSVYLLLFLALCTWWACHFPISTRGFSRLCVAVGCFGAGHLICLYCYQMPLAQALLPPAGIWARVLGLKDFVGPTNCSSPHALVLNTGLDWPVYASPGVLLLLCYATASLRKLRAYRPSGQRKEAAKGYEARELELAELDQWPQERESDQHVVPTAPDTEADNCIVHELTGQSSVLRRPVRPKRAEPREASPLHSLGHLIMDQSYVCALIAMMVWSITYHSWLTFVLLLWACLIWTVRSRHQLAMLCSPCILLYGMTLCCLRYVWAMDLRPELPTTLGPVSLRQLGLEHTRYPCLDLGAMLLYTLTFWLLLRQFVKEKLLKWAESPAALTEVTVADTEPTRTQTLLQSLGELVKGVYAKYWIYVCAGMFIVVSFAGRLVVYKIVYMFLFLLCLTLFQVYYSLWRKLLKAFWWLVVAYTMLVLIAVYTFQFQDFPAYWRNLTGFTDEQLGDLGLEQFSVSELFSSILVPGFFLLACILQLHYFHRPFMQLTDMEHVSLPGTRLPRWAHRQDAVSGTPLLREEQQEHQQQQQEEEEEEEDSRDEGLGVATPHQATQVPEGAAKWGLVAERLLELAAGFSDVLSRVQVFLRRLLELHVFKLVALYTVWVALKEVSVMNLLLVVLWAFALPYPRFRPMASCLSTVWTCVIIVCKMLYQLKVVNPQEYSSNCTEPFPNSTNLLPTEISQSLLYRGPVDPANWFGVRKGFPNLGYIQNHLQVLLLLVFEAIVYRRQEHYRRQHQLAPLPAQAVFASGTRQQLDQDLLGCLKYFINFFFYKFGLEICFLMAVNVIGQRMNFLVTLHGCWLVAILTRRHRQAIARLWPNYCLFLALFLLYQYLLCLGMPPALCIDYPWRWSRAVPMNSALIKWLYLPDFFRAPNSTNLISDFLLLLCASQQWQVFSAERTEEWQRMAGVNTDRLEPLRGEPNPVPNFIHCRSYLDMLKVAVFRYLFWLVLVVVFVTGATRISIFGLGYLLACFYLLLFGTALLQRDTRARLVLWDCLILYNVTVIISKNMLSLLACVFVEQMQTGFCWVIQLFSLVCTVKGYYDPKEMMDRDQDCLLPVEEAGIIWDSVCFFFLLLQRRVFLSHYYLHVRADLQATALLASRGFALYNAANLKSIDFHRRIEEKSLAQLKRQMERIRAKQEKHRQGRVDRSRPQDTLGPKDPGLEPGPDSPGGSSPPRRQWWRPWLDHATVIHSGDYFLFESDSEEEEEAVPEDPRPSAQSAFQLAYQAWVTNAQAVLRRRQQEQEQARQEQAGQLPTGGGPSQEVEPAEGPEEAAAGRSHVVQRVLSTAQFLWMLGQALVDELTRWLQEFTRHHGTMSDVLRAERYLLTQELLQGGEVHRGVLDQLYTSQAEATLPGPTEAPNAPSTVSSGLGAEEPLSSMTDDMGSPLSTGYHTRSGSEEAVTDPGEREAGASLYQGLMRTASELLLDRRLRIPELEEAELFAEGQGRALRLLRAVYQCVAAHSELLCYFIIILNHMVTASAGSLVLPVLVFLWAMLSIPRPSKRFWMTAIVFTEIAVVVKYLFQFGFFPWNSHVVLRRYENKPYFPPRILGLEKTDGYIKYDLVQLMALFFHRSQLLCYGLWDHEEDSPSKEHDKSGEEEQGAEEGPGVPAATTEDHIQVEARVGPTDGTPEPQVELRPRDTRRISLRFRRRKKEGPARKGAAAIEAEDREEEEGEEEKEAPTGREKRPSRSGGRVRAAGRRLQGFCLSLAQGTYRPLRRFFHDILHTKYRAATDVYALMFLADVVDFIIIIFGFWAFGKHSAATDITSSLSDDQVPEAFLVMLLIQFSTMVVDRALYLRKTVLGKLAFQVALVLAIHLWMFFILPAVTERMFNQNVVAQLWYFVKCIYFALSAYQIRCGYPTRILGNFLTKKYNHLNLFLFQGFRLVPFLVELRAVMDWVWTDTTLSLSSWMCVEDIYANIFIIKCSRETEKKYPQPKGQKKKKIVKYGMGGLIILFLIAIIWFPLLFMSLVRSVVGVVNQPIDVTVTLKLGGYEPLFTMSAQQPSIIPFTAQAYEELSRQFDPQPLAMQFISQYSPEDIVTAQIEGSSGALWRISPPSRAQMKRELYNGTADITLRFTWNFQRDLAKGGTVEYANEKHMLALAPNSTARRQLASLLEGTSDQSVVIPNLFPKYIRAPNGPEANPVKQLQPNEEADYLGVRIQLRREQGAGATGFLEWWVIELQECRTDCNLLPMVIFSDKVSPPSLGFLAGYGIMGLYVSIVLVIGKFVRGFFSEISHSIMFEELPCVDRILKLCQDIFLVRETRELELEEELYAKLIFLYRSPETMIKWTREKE
Test: Agonist activity at human PIEZO1 overexpressing HEK293-A cells co-expressing mCherry-piezo1 assessed as fold change in calcium influx at 5 uM by fluo-3 based real-time flow cytometric analysis
Assay type: cell-based
Test readout: fold change (FC)

The examples below pair each entry with its known result.
Smiles repr	fold change (FC)
Brc1ccc(Br)c(CSc2nnc(-c3cnccn3)o2)c1	< 1.2
Clc1cccc(Cl)c1CNc1nnc(-c2cnccn2)o1	< 1.2
FC(F)(F)c1ccc(Br)c(CSc2nnc(-c3cnccn3)o2)c1	> 1.2

Query: I have this molecule here, `Clc1cccc(Br)c1CSc1nnc(-c2cnccn2)o1` , and I need its recorded fold change (FC).
Response: > 1.2

Query: I have this molecule here, `O=c1oc(-c2cnccn2)nn1Cc1c(Cl)cccc1Cl` , and I need its recorded fold change (FC).
Response: < 1.2

Query: I have this molecule here, `O=c1oc(-c2cnccn2)nn1Cc1ccccc1Cl` , and I need its recorded fold change (FC).
Response: < 1.2

Query: I have this molecule here, `Fc1cccc(Cl)c1CSc1nnc(-c2cnccn2)o1` , and I need its recorded fold change (FC).
Response: > 1.2

Query: I have this molecule here, `FC(F)(F)c1cccc(Br)c1CSc1nnc(-c2cnccn2)o1` , and I need its recorded fold change (FC).
Response: > 1.2

---

Biological target: Piezo-type mechanosensitive ion channel component 1 (Homo sapiens, UniProt Q92508)
Assay: Agonist activity at human PIEZO1 overexpressing HEK293-A cells co-expressing mCherry-piezo1 assessed as fold change in calcium influx at 15 uM by fluo-3 based real-time flow cytometric analysis
Type: cell-based
Test readout: fold change (FC)

The examples below pair each entry with its known result.
Smiles repr	Study target	Result
Clc1ccc(Cl)c(CSc2nnc(-c3cnccn3)o2)c1	Piezo-type mechanosensitive ion channel component 1 (Homo sapiens, UniProt Q92508)	> 1.2
N#Cc1ccccc1CSc1nnc(-c2cnccn2)o1	Piezo-type mechanosensitive ion channel component 1 (Homo sapiens, UniProt Q92508)	< 1.2
Cc1ccccc1CSc1nnc(-c2cnccn2)o1	Piezo-type mechanosensitive ion channel component 1 (Homo sapiens, UniProt Q92508)	< 1.2

Query: // lookup fold change (FC) | system=Piezo-type mechanosensitive ion channel component 1 (Homo sapiens, UniProt Q92508) | key= `O=c1oc(-c2cnccn2)nn1Cc1c(Cl)cccc1Cl`
Response: < 1.2

Query: // lookup fold change (FC) | system=Piezo-type mechanosensitive ion channel component 1 (Homo sapiens, UniProt Q92508) | key= `O=[N+]([O-])c1ccccc1CSc1nnc(-c2cnccn2)o1`
Response: < 1.2

Query: // lookup fold change (FC) | system=Piezo-type mechanosensitive ion channel component 1 (Homo sapiens, UniProt Q92508) | key= `Clc1cccc(Cl)c1CSc1nnc(-c2ccc[nH]2)o1`
Response: < 1.2

Query: // lookup fold change (FC) | system=Piezo-type mechanosensitive ion channel component 1 (Homo sapiens, UniProt Q92508) | key= `Fc1cccc(Cl)c1CSc1nnc(-c2cnccn2)o1`
Response: < 1.2

Query: // lookup fold change (FC) | system=Piezo-type mechanosensitive ion channel component 1 (Homo sapiens, UniProt Q92508) | key= `Clc1cccc(Cl)c1CSc1nnc(-c2cnccn2)[nH]1`
Response: < 1.2

Query: // lookup fold change (FC) | system=Piezo-type mechanosensitive ion channel component 1 (Homo sapiens, UniProt Q92508) | key= `FC(F)(F)c1ccc(Br)c(CSc2nnc(-c3cnccn3)o2)c1`
Response: > 1.2

---

Each record here notes measured fold change (FC).
Biological target: Piezo-type mechanosensitive ion channel component 1 (Homo sapiens, UniProt Q92508)
Assay: Agonist activity at human PIEZO1 overexpressing HEK293-A cells co-expressing mCherry-piezo1 assessed as fold change in calcium influx at 5 uM by fluo-3 based real-time flow cytometric analysis
Assay type: cell-based

The examples below pair each entry with its known result.
Smiles repr	Study target	fold change (FC)
Clc1cccc(Cl)c1CSc1nnc(-c2cnccn2)o1	Piezo-type mechanosensitive ion channel component 1 (Homo sapiens, UniProt Q92508)	> 1.2
Brc1cccc(Br)c1CSc1nnc(-c2cnccn2)o1	Piezo-type mechanosensitive ion channel component 1 (Homo sapiens, UniProt Q92508)	> 1.2
Clc1cccc(Cl)c1CSc1nnc(-c2cnccn2)s1	Piezo-type mechanosensitive ion channel component 1 (Homo sapiens, UniProt Q92508)	> 1.2
FC(F)(F)c1ccccc1CSc1nnc(-c2cnccn2)o1	Piezo-type mechanosensitive ion channel component 1 (Homo sapiens, UniProt Q92508)	< 1.2

Query: I have this compound here, `Clc1ccc(Cl)c(CSc2nnc(-c3cnccn3)o2)c1` , and I need its recorded fold change (FC).
Response: < 1.2

Query: I have this compound here, `Clc1ccccc1CSc1nnc(-c2ccc[nH]2)o1` , and I need its recorded fold change (FC).
Response: < 1.2

Query: I have this compound here, `FC(F)(F)c1cccc(Cl)c1CSc1nnc(-c2cnccn2)o1` , and I need its recorded fold change (FC).
Response: > 1.2

Query: I have this compound here, `FC(F)(F)c1ccc(Cl)c(CSc2nnc(-c3cnccn3)o2)c1` , and I need its recorded fold change (FC).
Response: > 1.2

---

Molecular target: UniProt:Q92508
Assay: Agonist activity at human PIEZO1 overexpressing HEK293-A cells co-expressing mCherry-piezo1 assessed as fold change in calcium influx at 20 uM by fluo-3 based real-time flow cytometric analysis
Assay type: cell-based
Each record here notes measured fold change (FC).

The examples below pair each entry with its known result.
Smiles repr	fold change (FC)
O=c1oc(-c2cnccn2)nn1Cc1c(Cl)cccc1Cl	< 1.2
Clc1ccccc1CNc1nnc(-c2cnccn2)o1	< 1.2
Clc1ccc(Cl)c(CSc2nnc(-c3cnccn3)o2)c1	> 1.2
FC(F)(F)c1ccc(Cl)c(CSc2nnc(-c3cnccn3)o2)c1	> 1.2
Ic1ccccc1CSc1nnc(-c2cnccn2)o1	< 1.2

Query: I have this compound here, `FC(F)(F)c1ccccc1CSc1nnc(-c2cnccn2)o1` , and I need its recorded fold change (FC).
Response: > 1.2

Query: I have this compound here, `Clc1cccc(Cl)c1CSc1nnc(-c2cnccn2)o1` , and I need its recorded fold change (FC).
Response: > 1.2

Query: I have this compound here, `Clc1ccccc1CSc1nnc(-c2cnccn2)[nH]1` , and I need its recorded fold change (FC).
Response: < 1.2

---

Each record here notes measured fold change (FC).
Target: Piezo-type mechanosensitive ion channel component 1 (Homo sapiens, UniProt Q92508)
Assay: Agonist activity at human PIEZO1 overexpressing HEK293-A cells co-expressing mCherry-piezo1 assessed as fold change in calcium influx at 20 uM by fluo-3 based real-time flow cytometric analysis
Format: cell-based

The examples below pair each entry with its known result.
Smiles repr	Test readout	Result
N#Cc1ccccc1CSc1nnc(-c2cnccn2)o1	fold change (FC)	< 1.2
Clc1cccc(Br)c1CSc1nnc(-c2cnccn2)o1	fold change (FC)	> 1.2
FC(F)(F)c1cccc(Br)c1CSc1nnc(-c2cnccn2)o1	fold change (FC)	> 1.2
Clc1cccc(Cl)c1CSc1nnc(-c2cnccn2)[nH]1	fold change (FC)	< 1.2
Brc1cccc(Br)c1CSc1nnc(-c2cnccn2)o1	fold change (FC)	> 1.2

Query: // lookup fold change (FC) | system=Piezo-type mechanosensitive ion channel component 1 (Homo sapiens, UniProt Q92508) | key= `Clc1cccc(CSc2nnc(-c3cnccn3)o2)c1Cl`
Response: < 1.2

Query: // lookup fold change (FC) | system=Piezo-type mechanosensitive ion channel component 1 (Homo sapiens, UniProt Q92508) | key= `Fc1ccccc1CSc1nnc(-c2cnccn2)o1`
Response: < 1.2

---

Each record here notes measured fold change (FC).
Molecular target: UniProt Q92508
Test: Agonist activity at human PIEZO1 overexpressing HEK293-A cells co-expressing mCherry-piezo1 assessed as fold change in calcium influx at 0.5 uM by fluo-3 based real-time flow cytometric analysis
Type: cell-based

The examples below pair each entry with its known result.
Smiles repr	Study target	fold change (FC)
Clc1ccc(Cl)c(CSc2nnc(-c3cnccn3)o2)c1	UniProt Q92508	< 1.2
FC(F)(F)c1ccc(Br)c(CSc2nnc(-c3cnccn3)o2)c1	UniProt Q92508	> 1.2
Clc1ccccc1CNc1nnc(-c2cnccn2)o1	UniProt Q92508	< 1.2
Brc1ccc(Br)c(CSc2nnc(-c3cnccn3)o2)c1	UniProt Q92508	< 1.2
Clc1cccc(Cl)c1CSc1nnc(-c2cnccn2)o1	UniProt Q92508	< 1.2

Query: I have this molecule here, `Clc1cccc(Cl)c1CNc1nnc(-c2cnccn2)o1` , and I need its recorded fold change (FC).
Response: < 1.2

Query: I have this molecule here, `O=c1oc(-c2cnccn2)nn1Cc1c(Cl)cccc1Cl` , and I need its recorded fold change (FC).
Response: < 1.2

Query: I have this molecule here, `Clc1cccc(Br)c1CSc1nnc(-c2cnccn2)o1` , and I need its recorded fold change (FC).
Response: > 1.2

---

Biological target: UniProt Q92508
Test: Agonist activity at human PIEZO1 overexpressing HEK293-A cells co-expressing mCherry-piezo1 assessed as induction of calcium influx by fluo-3 based real-time flow cytometric analysis
pEC50: −log10 of the molar value.
Test readout: pEC50

The examples below pair each entry with its known result.
Smiles repr	pEC50
Brc1ccc(Br)c(CSc2nnc(-c3cnccn3)o2)c1	5.00
FC(F)(F)c1cccc(Cl)c1CSc1nnc(-c2cnccn2)o1	6.40
FC(F)(F)c1ccc(C(F)(F)F)c(CSc2nnc(-c3cnccn3)o2)c1	6.00

1: Brc1cccc(Br)c1CSc1nnc(-c2cnccn2)o1
2: FC(F)(F)c1ccc(Cl)c(CSc2nnc(-c3cnccn3)o2)c1
Query: Of 1 and 2 , which one carries the higher reported pEC50? Your answer should be the label attached to the chosen record.
Response: 2

I: Clc1cccc(Cl)c1CSc1nnc(-c2cnccn2)o1
II: Clc1cccc(Cl)c1CSc1nnc(-c2cnccn2)s1
Query: Of I and II , which one carries the higher reported pEC50? Your answer should be the label attached to the chosen record.
Response: II
(II: 6.30, I: 5.87)
